FYI, the data here is from PubChem BioAssay AID1159580.

assay: chemical genetic growth profiling, strain panel (AID 1159580);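 further: tested at 20 µM; growth read once vehicle control cultures reached saturation at 30 °C; 1 = growth at the plate median or of vehicle wells; lower values mean less growth of the strain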; conditions: S. cerevisiae deletion strains, growth OD, locus YER155C, strain BEM2 (second series), active compounds read low
Hit rate of the full screen: of about 5,500 compounds, about 2,000 (36%) were called active. About 18% were inconclusive and are not listed. Some of the results follow.
ENDPOINT LABEL: normalized growth
Give bare numbers.

Check out these entries, answers already filled in.
So what's the measured normalized growth for this one? CC(=O)N[C@@H](CS)C(=O)O
1.01

So what's the measured normalized growth for this one? CCCCN(CCCC)CCCOC(=O)c1ccc(N)cc1
0.984

So what's the measured normalized growth for this one? O=C(C1CCCCC1)N1CC(=O)N2CCc3ccccc3C2C1 (centres undefined)
0.913

Count: 7. Required value per item: normalized growth.
1. CO/N=C(\C(=O)NC1C(=O)N2C(C(=O)OC(C)OC(C)=O)=C(COC(N)=O)CSC12)c1ccco1 (centres undefined)
2. CC(=O)Oc1c(C)cccc1C(=O)O
3. CCCCC(=O)Oc1ccccc1C(=O)O
4. COc1cc(-c2coc3cc(OC)c(OC)c(OC)c3c2=O)cc(OC)c1OC
5. COc1cc(OC)c2c(=O)c(-c3ccccc3)coc2c1
6. CC[N+](CC)(CC)CCOc1cccc(OCC[N+](CC)(CC)CC)c1OCC[N+](CC)(CC)CC
7. CCC(C)C(=O)O[C@H]1C[C@H](O)C=C2C=C[C@H](C)[C@H](CC[C@@H](O)C[C@@H](O)CC(=O)O)C21 (some centres undefined)

[0.991, 1.01, 0.964, 0.968, 0.596, 0.914, 1.02]
